Source: ChEMBL document CHEMBL5131375

assay: in vitro; details: chlorocebus sabaeus, Vero E6 cells
READOUT LABEL: CC50

Name the recorded CC50 for "Cc1cccc(/C=N/Nc2cc(N3CCOCC3)nc(OCCc3ccccn3)n2)c1" .
> 1000 nM

----------
experiment: Cytotoxicity against human HL-60 cells; format: toxicity, cell-based
READOUT LABEL: CC50

Query (compound): O=C1NC(=O)C(c2c[nH]c3ccccc23)=C1c1c[nH]c2ccccc12 [RO-316233] ; field requested: CC50
> 8 µM

----------
test: in vitro; conditions: human, hff
READOUT LABEL: CC50 (µM)
Write it as a number; the unit µM goes unstated.

GET /values?readout=CC50&item= CC(C)c1cnn2c(NCc3ccccc3-n3cccn3)nc(OC3CCCNC3)nc12 (stereo unspecified)
6.2

----------
system: Influenza A virus; assay: microbe, parasite or virus in culture; settings: Lung, 24 h
READOUT LABEL: pEC50
Here pEC50 is given on a logarithmic scale as minus log10 of the concentration in mol/L.

Any idea what its pEC50 is? The molecule is "N#CC(=C(/N)Sc1ccccc1N)/C(C#N)=C(\N)Sc1ccccc1N"
3.21

----------
EC50: recorded values
tested on: Dengue virus; assay: microbe, parasite or virus in culture
Please reply with the bare figure in nM and do not write the unit itself.

Quick check: EC50 of "COc1ccc(-c2ccc3nsc(N4C[C@@H](C)O[C@@H](C)C4)c3n2)cc1OC" ?
1000

Follow-up item: "COc1cc(-c2cnc3c(N4C[C@@H](C)O[C@@H](C)C4)snc3c2)ccc1N"
3500

--- query ---
# query: EC50 of entry "COc1ccc(-c2cnc3[nH]cc(C#Cc4cccnc4)c3c2)cc1OC"
43

----------
test: Cytotoxicity against human A549 cells; assay type: toxicity, cell-based
READOUT LABEL: CC50

The examples below pair each entry with its known result.
Tell me the measured CC50 of "CCc1cnn2c(NCc3ccc[n+]([O-])c3)cc(N3CCCC[C@H]3CCO)nc12" , please.
> 100 µM

Same for "CC(=O)Nc1cccc(-n2c(=O)n(C3CC3)c(=O)c3c(Nc4ccc(I)cc4F)n(C)c(=O)c(C)c32)c1"
> 20 µM

Same for "Nc1cc(N)c(N)cc1N"
> 1 µM

Let us move to another entry and its CC50.
Form field: reported CC50 of "Cn1cnc2c(F)c(Nc3ccc(Br)cc3Cl)c(C(=O)NOCCO)cc21"
> 100 µM

----------
assay: Cytotoxicity against human NCI-H358 cells; assay type: toxicity, cell-based
READOUT LABEL: CC50

Requested read-out: CC50. Entry: "Nc1cc(N)c(N)cc1N"
> 1000 nM

----------
assay: in vitro; conditions: chlorocebus sabaeus, vero
READOUT LABEL: CC50 (µM)
// units = µM; emit number, no label

Requested read-out: CC50. Entry: "CN1CCC(Nc2ncc3ncnc(Nc4ccc(F)c(Cl)c4)c3n2)CC1"
29.1

----------
assay: in vitro; details: human, huh-7
READOUT LABEL: CC50 (µM)
Use µM as the unit, but write only the number.

Param item = "CN1CCN(CCOc2cc(OC3CCOCC3)c3c(Nc4c(Cl)ccc5c4OCO5)ncnc3c2)CC1" ; retrieve measured CC50.
74

----------
system: SARS-CoV-2; assay: microbe, parasite or virus in culture; assay type: functional, organism-based; conditions: Severe acute respiratory syndrome coronavirus 2
The molecules listed here are annotated with their EC50.
State just the number; it will be interpreted in nM.

GET /values?readout=EC50&item= CNC(=O)c1cccc(-c2ccc3c(N4CCOC[C@@H]4C)nc(N4CCOC[C@@H]4C)nc3n2)c1 [VISTUSERTIB]
15.9

---
Would you kindly share the measured EC50 for Cc1cn(-c2cc(NC(=O)c3ccc(C)c(Nc4nccc(-c5cccnc5)n4)c3)cc(C(F)(F)F)c2)cn1 [NILOTINIB] ?
80

Moving on to the next molecule: Cc1cccc(/C=N/Nc2cc(N3CCOCC3)nc(OCCc3ccccn3)n2)c1 [APILIMOD]
23

Next up: CCc1nc(C(N)=O)c(Nc2ccc(N3CCC(N4CCN(C)CC4)CC3)c(OC)c2)nc1NC1CCOCC1 [GILTERITINIB]
225

----------
test: Cytotoxicity against human HaCaT cells; assay type: toxicity, cell-based
READOUT LABEL: CC50

Endpoint output: CC50 of "CO[C@H]1C[C@@H]2CC[C@@H](C)[C@@](O)(O2)C(=O)C(=O)N2CCCC[C@H]2C(=O)O[C@H]([C@H](C)C[C@@H]2CC[C@@H](OCCO)[C@H](OC)C2)CC(=O)[C@H](C)/C=C(\C)[C@@H](O)[C@@H](OC)C(=O)[C@H](C)C[C@H](C)/C=C/C=C/C=C/1C" . Value?
28.3 µM

----------
assay: in vitro; settings: human, bxpc-3
READOUT LABEL: CC50

What does the record list as CC50 for O=C(NCc1ccncc1)C12CC3CC(C1)CC(c1ccc(Cl)cc1)(C3)C2 [ABC-294640] ?
28.5 µM

----------
biological target: Calcium/calmodulin-dependent protein kinase type II subunit gamma (Homo sapiens, UniProt Q13555); assay: Inhibition of CAMK-II (unknown origin)
Sequence (Q13555 whole entry): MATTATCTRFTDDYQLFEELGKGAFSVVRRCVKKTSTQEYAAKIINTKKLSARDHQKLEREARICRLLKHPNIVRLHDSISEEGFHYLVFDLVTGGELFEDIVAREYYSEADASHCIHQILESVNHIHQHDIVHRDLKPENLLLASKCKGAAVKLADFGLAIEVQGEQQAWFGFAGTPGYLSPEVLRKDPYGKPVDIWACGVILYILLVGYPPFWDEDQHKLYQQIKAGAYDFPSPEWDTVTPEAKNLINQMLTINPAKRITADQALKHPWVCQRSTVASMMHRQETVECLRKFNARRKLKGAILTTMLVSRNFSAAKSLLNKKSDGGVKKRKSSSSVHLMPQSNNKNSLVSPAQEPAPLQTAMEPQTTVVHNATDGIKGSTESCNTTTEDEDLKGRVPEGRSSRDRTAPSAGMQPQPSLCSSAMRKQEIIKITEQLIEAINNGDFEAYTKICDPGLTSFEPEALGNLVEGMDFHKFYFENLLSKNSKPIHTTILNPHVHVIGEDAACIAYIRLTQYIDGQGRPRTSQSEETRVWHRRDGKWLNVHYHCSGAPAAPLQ
READOUT LABEL: IC50 (nM)
Respond numerically; units are nM and should not be typed.

Consider the molecule "COc1ccc(S(=O)(=O)N(CCCC(=O)C2CCCCCC2)c2ccccc2)cc1" and give its measured IC50.
790

----------
assay: Cytotoxicity against human JEG-3 cells; format: toxicity, cell-based
READOUT LABEL: CC50

Param item = "c1cncc(CN2CCC(n3ncc4c(N5CCOCC5)nc(-c5ccc6[nH]ccc6c5)nc43)CC2)c1" ; retrieve measured CC50.
> 10 µM

----------
experiment: Cytotoxicity against liver spheroids (unknown origin); format: toxicity, tissue-based
READOUT LABEL: CC50

Given the compound "CCS(=O)(=O)N1CC(CC#N)(n2cc(-c3ncnc4[nH]ccc34)cn2)C1" , what is its reported CC50?
> 5 µM

----------
biological target: Focal adhesion kinase 1 (Homo sapiens, UniProt Q05397)
Sequence (Q05397 whole entry): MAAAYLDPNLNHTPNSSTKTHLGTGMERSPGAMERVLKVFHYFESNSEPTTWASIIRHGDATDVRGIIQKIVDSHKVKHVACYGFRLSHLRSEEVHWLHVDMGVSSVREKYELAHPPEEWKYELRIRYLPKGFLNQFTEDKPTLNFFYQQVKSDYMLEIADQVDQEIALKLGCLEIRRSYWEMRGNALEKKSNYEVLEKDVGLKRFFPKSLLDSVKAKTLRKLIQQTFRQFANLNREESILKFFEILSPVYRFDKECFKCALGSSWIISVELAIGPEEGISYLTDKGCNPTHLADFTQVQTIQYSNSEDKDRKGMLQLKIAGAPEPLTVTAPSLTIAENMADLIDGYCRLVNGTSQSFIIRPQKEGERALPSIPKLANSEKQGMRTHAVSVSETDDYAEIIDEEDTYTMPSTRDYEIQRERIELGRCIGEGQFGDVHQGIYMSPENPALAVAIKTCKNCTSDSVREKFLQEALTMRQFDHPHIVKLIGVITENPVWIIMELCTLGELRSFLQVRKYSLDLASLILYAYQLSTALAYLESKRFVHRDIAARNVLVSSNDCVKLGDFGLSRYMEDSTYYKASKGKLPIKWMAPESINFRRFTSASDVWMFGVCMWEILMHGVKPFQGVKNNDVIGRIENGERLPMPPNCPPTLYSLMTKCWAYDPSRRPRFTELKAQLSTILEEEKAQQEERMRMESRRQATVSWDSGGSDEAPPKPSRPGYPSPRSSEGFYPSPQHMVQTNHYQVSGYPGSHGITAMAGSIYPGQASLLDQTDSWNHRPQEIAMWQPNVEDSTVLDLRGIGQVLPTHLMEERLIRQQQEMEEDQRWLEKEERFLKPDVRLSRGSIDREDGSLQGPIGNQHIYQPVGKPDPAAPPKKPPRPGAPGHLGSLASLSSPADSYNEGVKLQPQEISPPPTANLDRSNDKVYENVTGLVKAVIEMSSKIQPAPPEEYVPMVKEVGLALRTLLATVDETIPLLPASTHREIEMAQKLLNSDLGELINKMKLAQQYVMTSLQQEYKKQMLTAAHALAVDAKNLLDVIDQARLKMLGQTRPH
READOUT LABEL: pIC50
pIC50 here: minus log base 10 of the concentration, concentration in moles per litre.

Can you look up the measured pIC50 of "Nc1cc(N)c(N)cc1N" for me?
6.00

----------
# Lookup of reported CC50 keyed by entry
experiment: Cytotoxicity against golden hamster BSR cells; format: toxicity, cell-based, Mesocricetus auratus

Please report the recorded CC50 for CC(=O)c1c(O)c(C)c(O)c(Cc2c(O)c3c(c(C(=O)/C=C/c4ccccc4)c2O)OC(C)(C)C=C3)c1O [ROTTLERIN] .
100 µM

// next entry
Can you look up the measured CC50 of CC(C)(C)c1cc(C=C(C#N)C#N)cc(C(C)(C)C)c1O [TYRPHOSTIN A9] for me?
150 µM

----------
target: AP2-associated protein kinase 1 (Homo sapiens, UniProt Q2M2I8)
Sequence (Q2M2I8 whole entry): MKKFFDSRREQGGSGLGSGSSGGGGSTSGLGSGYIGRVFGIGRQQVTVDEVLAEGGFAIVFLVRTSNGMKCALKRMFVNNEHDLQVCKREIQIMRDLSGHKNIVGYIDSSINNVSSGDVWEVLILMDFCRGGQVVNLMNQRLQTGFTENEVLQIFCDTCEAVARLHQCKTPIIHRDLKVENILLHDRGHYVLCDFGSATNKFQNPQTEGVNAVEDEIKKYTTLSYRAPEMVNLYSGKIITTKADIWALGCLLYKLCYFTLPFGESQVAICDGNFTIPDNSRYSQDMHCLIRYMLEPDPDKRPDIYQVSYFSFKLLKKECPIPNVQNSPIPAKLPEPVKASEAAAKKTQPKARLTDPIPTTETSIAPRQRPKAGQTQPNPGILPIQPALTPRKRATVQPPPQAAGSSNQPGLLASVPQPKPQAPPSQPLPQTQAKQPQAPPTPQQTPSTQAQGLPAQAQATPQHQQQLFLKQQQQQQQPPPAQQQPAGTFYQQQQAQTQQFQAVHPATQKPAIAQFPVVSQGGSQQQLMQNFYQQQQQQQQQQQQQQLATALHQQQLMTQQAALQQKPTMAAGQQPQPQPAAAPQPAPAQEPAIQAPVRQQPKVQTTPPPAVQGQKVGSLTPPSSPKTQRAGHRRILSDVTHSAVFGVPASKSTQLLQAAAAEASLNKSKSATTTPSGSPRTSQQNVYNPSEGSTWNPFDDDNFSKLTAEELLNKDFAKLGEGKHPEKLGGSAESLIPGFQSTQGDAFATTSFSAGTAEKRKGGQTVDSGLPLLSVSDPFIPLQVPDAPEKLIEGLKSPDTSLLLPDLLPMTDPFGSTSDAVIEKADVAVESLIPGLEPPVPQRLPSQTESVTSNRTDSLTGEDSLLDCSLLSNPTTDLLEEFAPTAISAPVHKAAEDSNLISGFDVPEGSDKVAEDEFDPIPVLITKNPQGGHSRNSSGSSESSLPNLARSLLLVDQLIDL
READOUT LABEL: IC50

If you can, please state the reported IC50 value of "CCS(=O)(=O)N1CC(CC#N)(n2cc(-c3ncnc4[nH]ccc34)cn2)C1" .
17 nM

----------
assay: Cytotoxicity against human A549 cells; assay type: toxicity, cell-based
In this section, each of the molecules is paired with its reported CC50.

Example results:
Given the molecule "Cc1ccc([N+](=O)[O-])cc1S(=O)(=O)N(C)/N=C/c1cnc2ccc(Br)cn12" , what is its reported CC50?
> 100 µM

# iterate: "O=C(NOC[C@H](O)CO)c1ccc(F)c(F)c1Nc1ccc(I)cc1F"
> 100 µM

Thanks! And "O=C(NOCC1CC1)c1ccc(F)c(F)c1Nc1ccc(I)cc1Cl" ?
312 µM

What do you get for "COc1cc(F)c(F)c(Nc2ccc(I)cc2F)c1NS(=O)(=O)C1(C[C@H](O)CO)CC1" ?
> 100 µM

Same read-out for "CC(C)(C)c1cc(/C=C(\C#N)C(N)=S)cc(C(C)(C)C)c1O" ?
> 81 µM

Next:
Form field: reported CC50 of "Cc1cc(C(=O)NOCCO)c(Nc2ccc(I)cc2F)n(C)c1=O"
> 100 µM

Next up: "C/C(O)=C(/C#N)C(=O)Nc1ccc(C(F)(F)F)cc1"
> 100 µM

Can you handle "O=C(Cc1cccs1)Nc1cccc(-c2ccc3nnc(-c4cccnc4)n3n2)c1" next?
> 50 µM
